Each record here notes measured growth.
Test system: SR leukemia
Experiment: NCI-60 one-dose screen, 48 h (100 = growth as untreated, 0 = no growth, -100 = all killed)
Conditions: 10 µM unless noted
About 83,000 compounds went through this panel and 20% of them were active in at least one assay; those are over-represented in the sample as a whole.
Answer in %, number only, no unit symbol.

>>> endpoint_result("CN1CCN(c2ccc(Nc3nc(NCCNC(=O)c4ccc(F)cc4)c4sccc4n3)cc2)CC1")
0.604
>>> endpoint_result("CCOc1cccc(/C(N)=N/C(N)=N/c2nc3ccccc3s2)c1")
6.28
>>> endpoint_result("NC1=NC2(CCCC2)N(c2ccc(S(=O)(=O)Nc3nccs3)cc2)C(N)=N1")
98.2

For the compound NC1[C@H]2CN(c3cnc(C(=O)Nc4cc(F)cc5cccnc45)cn3)C[C@@H]12 (stereo not given in full) , what growth is on record?
8.36

Now consider C#Cc1nc(/C=C/C(=O)NO)cs1 and answer again.
-42.9

* * *

Tested on: UACC-257 melanoma
Experiment: NCI-60 one-dose screen, 48 h (100 = growth as untreated, 0 = no growth, -100 = all killed)
Details: 10 µM unless noted
The panel holds about 83,000 compounds, 20% with a hit somewhere; the sample as a whole holds those more often.
measurement.name: growth (%)
Answer in %, number only, no unit symbol.

>>> endpoint_result("CCCC/C(=C\\c1ccc(O)c(O)c1)C(=O)NC(Cc1ccccc1)C(=O)C(=O)NCCc1ccc(OC)cc1 (configuration not stated)")
100

For the compound O=C(CCCCCCNC(=O)C(O)(O)C(F)(F)F)Nc1ncc(-c2ccccc2)s1 , what growth is on record?
20.8

Now consider O=C(CCCCCCNC(=O)c1csc(Br)n1)NO and answer again.
18.4

Now consider CCCCCCCCCCCC(=O)NC(C)(C)C(=O)N1CCCC1C(=O)NC(C)(C)C(=O)NC(C)(C)C(=O)N1CCCC1C(=O)NC(C)(C)C(=O)NC(C)(C)C(=O)N1CCCC1C(=O)NC(C)C(=O)NCCC(=O)NC(C)C(=O)NC(C)(C)C(=O)NC(C)(C)C(=O)NC(C)(C)C(=O)NCCC(=O)NC(C)(C)C(=O)NC(C)(C)C(=O)NC(C)(C)C(=O)NC(C)C(=O)NCCC(=O)O (configuration not stated) and answer again.
-91.8

* * *

Tested on: HS 578T breast
Test: NCI-60 one-dose screen, 48 h
Conditions: 10 µM unless noted
About 83,000 compounds went through this panel and 20% of them were active in at least one assay; those are over-represented in the sample as a whole. The source made the active and inactive calls. The calls were made as follows: active = growth percent below 10; inactive = the rest.
One label from this list, please: label 1 for active, label 0 for inactive

Worked cases, answers included:
>>> assigned_label("CCCCN1C(=O)/C(=c2\\sc3n(c2=O)C2C(NN=3)N(CC)C(=O)N2CC)c2cc(C)ccc21 (stereo not drawn)")
"label 0"
>>> assigned_label("N#Cc1cnc2ccc(-c3cnc4n[nH]nc4c3)cc2c1N1CCc2cc(F)c(Cl)cc21")
"label 1"
>>> assigned_label("COc1ccc2sc(NC(=O)CCCCCCNC(=O)C(O)(O)C(F)(F)F)nc2c1")
"label 0"
>>> assigned_label("CN1CCN(c2ccc(Nc3nc(NCCNC(=O)c4ccccc4)c4sccc4n3)cc2)CC1")
"label 0"
>>> assigned_label("C=C(C)[C@@H]1CC[C@]2(C(=O)NC3CCCCC3)CC[C@]3(C)[C@H](CC[C@@H]4[C@@]5(C)CC[C@H](N)C(C)(C)[C@@H]5CC[C@]43C)[C@@H]12")
"label 0"
>>> assigned_label("COC(=O)CCCNCCCn1ccc2cc(NCc3cccc(-c4ccccc4)c3C)ccc21")
"label 0"

How did this test come out for CC1CC(=O)C2=C(C1)Nc1ccc(Br)cc1CC2c1c[nH]c2ccc(Br)cc12 (stereo not drawn) ?
label 0

Now consider Cc1ccc(C(=O)CSc2nnc(-c3ccc(-c4ccc(Cl)cc4)nc3C)o2)cc1 and answer again.
label 0

Now consider CN1CCN(CCCCCC(=O)Nc2nc(-c3cccc(NS(=O)(=O)c4cccc5c(N(C)C)cccc45)c3)cs2)CC1 and answer again.
label 0

Now consider CN1CCN(Cc2ccc(NC(=O)c3cncc(C#Cc4cnc5ccc(N6CCOCC6)nn45)c3)cc2C(F)(F)F)CC1 and answer again.
label 1

Now consider COc1ccc(C(C)=C(c2ccc(OCCN(C)C)cc2)c2ccc(OCCN(C)C)cc2)cc1 and answer again.
label 1

Now consider CCCCc1nc2c(N)nc3ccccc3c2n1Cc1ccc(OC)cc1 and answer again.
label 0

Now consider Nc1cc(C(=O)N/N=C\c2ccc(OC(F)F)c(OC3CCCC3)c2)nn1CC(O)c1ccccc1 (stereo not drawn) and answer again.
label 0

Now consider O=C(CCCCCCNC(=O)C(O)(O)C(F)(F)F)Nc1ncc(-c2ccc(Br)cc2)s1 and answer again.
label 0

Now consider C#CCOc1ccccc1C(OC(=O)c1ccccc1)C(=O)NC(C)(C)C(C)(C)C (stereo not drawn) and answer again.
label 0

Now consider CCN(CC)c1ccc(/C=N/NC(=O)c2ccc(S(N)(=O)=O)cc2)c(O)c1 and answer again.
label 0

Now consider O=C(/C=C/c1cccc(C(F)(F)F)c1)Nc1cccc(C(F)(F)F)c1 and answer again.
label 0

Now consider CCNCCOc1ccc(/C(=C(/CC)c2ccc(Cl)cc2)c2ccc(OCCCN(C)C)cc2)cc1 and answer again.
label 1

* * *

Test system: M14 melanoma
Test: NCI-60 one-dose screen, 48 h
Settings: 10 µM unless noted
Compounds without any hit were thinned out: in the full panel of roughly 83,000, 20% have a hit. The source made the active and inactive calls. The calls were made as follows: active = growth percent below 10; inactive = the rest.
One label from this list, please: active, inactive

Worked cases, answers included:
>>> assigned_label("CCCCCCCCCCCC(=O)NC(C)(C)C(=O)N1CCCC1C(=O)NC(C)(C)C(=O)NC(C)(C)C(=O)N1CCCC1C(=O)NC(C)(C)C(=O)NC(C)(C)C(=O)N1CCCC1C(=O)NC(C)C(=O)NCCC(=O)NC(C)C(=O)NC(C)(C)C(=O)NC(C)(C)C(=O)NC(C)(C)C(=O)NCCC(=O)NC(C)(C)C(=O)NC(C)(C)C(=O)NC(C)(C)C(=O)NC(C)C(=O)NCCC(=O)O (stereo unspecified)")
"active"
>>> assigned_label("CS(=O)(=O)c1nccc(-c2c(-c3cccc(OCc4ccc(Cl)c(C(F)(F)F)c4)c3)nc3sccn23)n1")
"inactive"
>>> assigned_label("CNC(=O)c1cc(N2CCc3cc(NC(=O)Nc4ccc(N5CCN(C)CC5)c(C(F)(F)F)c4)ccc32)ccn1")
"inactive"
>>> assigned_label("O=C(O)c1ccc(-n2c(=O)n(-c3cccc(C(F)(F)F)c3)c(=O)c3cc(-c4ccc(F)cc4F)ccc32)cc1")
"inactive"
>>> assigned_label("O=C1[C@@H]2Cc3c([nH]c4ccccc34)[C@@H](c3ccc(Cl)cc3)N2C(=O)CN1C1CCN(Cc2ccccc2)CC1")
"active"

How did this test come out for O=C(Nc1ccc(Cl)c(C(F)(F)F)c1)Nc1ccc2oc(=O)ccc2c1 ?
inactive

Now consider CCOC(=O)C1=C(C)NC(C)=C(C(=O)OCc2ccccc2)C1c1cccc(C#N)c1 (stereo unspecified) and answer again.
inactive

Now consider O=C(Nc1ccc(N2CCOCC2)cc1)Nc1ccc2c(ccn2C(=O)c2cccc(F)c2)c1 and answer again.
inactive

Now consider COc1ccc(/C=N/NC(=O)CSc2nc(-c3cnccn3)cc(-c3cccs3)c2C#N)cc1 and answer again.
inactive

Now consider O=C1CSC(c2cn(-c3ccccc3)nc2-c2ccc(Cl)cc2)N1c1ccccc1 (stereo unspecified) and answer again.
inactive

Now consider NCCNC(=O)c1cccc(COc2ccccc2NC(=O)c2cc(Br)c(Br)[nH]2)c1 and answer again.
inactive

Now consider CCCCCC[n+]1ccc(SCC(=O)n2ccc3ccccc32)c2ccccc21 and answer again.
inactive

Now consider CCCCCCNC(=O)Oc1ccc(/C(=C(/C)c2ccc(Cl)cc2)c2ccc(OCCN3CCCCCC3)cc2)cc1 and answer again.
inactive

Now consider COc1cc2cc(Oc3ccc(NC(=O)Nc4ccc(F)c(C(F)(F)F)c4)cc3)c(C)nc2cc1OCCN(C)C and answer again.
inactive

Now consider CS(=O)(=O)c1ccc(/C(=N/N=C(N)N)c2ccc(F)cc2)cc1 and answer again.
inactive

Now consider O=c1c2cc(-c3ccc(F)cc3F)ccc2n(Nc2ccccc2)c(=O)n1-c1cccc(C(F)(F)F)c1 and answer again.
inactive

* * *

System: K-562 leukemia
Test: NCI-60 one-dose screen, 48 h
Details: 10 µM unless noted
About 83,000 compounds went through this panel and 20% of them were active in at least one assay; those are over-represented in the sample as a whole. Active and inactive are the calls of the source. Rule for the calls: active = growth percent below 10; inactive = the rest.
One label from this list, please: TRUE (active), FALSE (inactive)

Worked cases, answers included:
>>> assigned_label("N/C(=N\\C(N)=N\\c1nc2ccccc2s1)c1ccc(Cl)cc1")
"FALSE"
>>> assigned_label("COc1ccc(NC2=C(Br)C(=O)C(C)=C(C)C2=O)cc1OC")
"TRUE"

How did this test come out for Cc1ncn(-c2ccc(/C=N/Nc3ccnc4cc(Cl)ccc34)cc2)c1C ?
TRUE

Now consider CNC(=O)Nc1ccc(Nc2cc(-c3ccc(-n4cccn4)cc3)[nH]n2)c(C)c1 and answer again.
FALSE

Now consider O=C(/C=C/c1cccc(C(F)(F)F)c1)Nc1cccc(C(F)(F)F)c1 and answer again.
FALSE
